Substrate: ICOS (Homo sapiens (Human)) (UniProt Q9Y6W8)
Sequence (Q9Y6W8 21-199 limits assumed): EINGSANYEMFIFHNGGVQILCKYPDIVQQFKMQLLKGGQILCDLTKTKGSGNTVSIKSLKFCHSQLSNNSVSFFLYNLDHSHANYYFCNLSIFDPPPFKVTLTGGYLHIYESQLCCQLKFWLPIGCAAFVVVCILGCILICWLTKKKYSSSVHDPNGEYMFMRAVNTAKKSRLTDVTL
protocolSummary: flow cytometry, transfected cells
Decision: MFI ratio to WT (ΔWT) beneath 1 fold gives Satisfied; MFI ratio to WT (ΔWT) meeting or exceeding 1 fold gives Not satisfied.

binder	assignedClass
ICOSL-Fc N52G/N57V (Fc fusion) DTQEKEVRAMVGSDVELSCACPEGSRFDLNDVYVYWQTSESKTVVTYHIPQGSSLEVVDSRYRNRALMSPAGMLRGDFSLRLFNVTPQDEQKFHCLVLSQSLGFQEVLSVEVTLHVAANFSVPVVSAPHSPSQDELTFTCTSINGYPRPNVYWINKTDNSLLDQALQNDTVFLNMRGLYDVVSVLRIARTPSVNIGCCIENVLLQQNLTVGSQTGNDIGERDKITENPVSTGEKNAAT	Not satisfied
ICOSL-Fc N52P/N57S/Q100G (Fc fusion) DTQEKEVRAMVGSDVELSCACPEGSRFDLNDVYVYWQTSESKTVVTYHIPQPSSLESVDSRYRNRALMSPAGMLRGDFSLRLFNVTPQDEQKFHCLVLSGSLGFQEVLSVEVTLHVAANFSVPVVSAPHSPSQDELTFTCTSINGYPRPNVYWINKTDNSLLDQALQNDTVFLNMRGLYDVVSVLRIARTPSVNIGCCIENVLLQQNLTVGSQTGNDIGERDKITENPVSTGEKNAAT	Satisfied
ICOSL-Fc N52R/N57Y/Q100R (Fc fusion) DTQEKEVRAMVGSDVELSCACPEGSRFDLNDVYVYWQTSESKTVVTYHIPQRSSLEYVDSRYRNRALMSPAGMLRGDFSLRLFNVTPQDEQKFHCLVLSRSLGFQEVLSVEVTLHVAANFSVPVVSAPHSPSQDELTFTCTSINGYPRPNVYWINKTDNSLLDQALQNDTVFLNMRGLYDVVSVLRIARTPSVNIGCCIENVLLQQNLTVGSQTGNDIGERDKITENPVSTGEKNAAT	Satisfied
ICOSL-Fc N52T/N57H/Q100A (Fc fusion) DTQEKEVRAMVGSDVELSCACPEGSRFDLNDVYVYWQTSESKTVVTYHIPQTSSLEHVDSRYRNRALMSPAGMLRGDFSLRLFNVTPQDEQKFHCLVLSASLGFQEVLSVEVTLHVAANFSVPVVSAPHSPSQDELTFTCTSINGYPRPNVYWINKTDNSLLDQALQNDTVFLNMRGLYDVVSVLRIARTPSVNIGCCIENVLLQQNLTVGSQTGNDIGERDKITENPVSTGEKNAAT	Not satisfied
ICOSL-Fc N52S/N57L/Q100S (Fc fusion) DTQEKEVRAMVGSDVELSCACPEGSRFDLNDVYVYWQTSESKTVVTYHIPQSSSLELVDSRYRNRALMSPAGMLRGDFSLRLFNVTPQDEQKFHCLVLSSSLGFQEVLSVEVTLHVAANFSVPVVSAPHSPSQDELTFTCTSINGYPRPNVYWINKTDNSLLDQALQNDTVFLNMRGLYDVVSVLRIARTPSVNIGCCIENVLLQQNLTVGSQTGNDIGERDKITENPVSTGEKNAAT	Not satisfied
ICOSL-Fc N52A/N57Y/Q100A (Fc fusion) DTQEKEVRAMVGSDVELSCACPEGSRFDLNDVYVYWQTSESKTVVTYHIPQASSLEYVDSRYRNRALMSPAGMLRGDFSLRLFNVTPQDEQKFHCLVLSASLGFQEVLSVEVTLHVAANFSVPVVSAPHSPSQDELTFTCTSINGYPRPNVYWINKTDNSLLDQALQNDTVFLNMRGLYDVVSVLRIARTPSVNIGCCIENVLLQQNLTVGSQTGNDIGERDKITENPVSTGEKNAAT	Not satisfied
ICOSL-Fc N52Q/N57S/Q100A (Fc fusion) DTQEKEVRAMVGSDVELSCACPEGSRFDLNDVYVYWQTSESKTVVTYHIPQQSSLESVDSRYRNRALMSPAGMLRGDFSLRLFNVTPQDEQKFHCLVLSASLGFQEVLSVEVTLHVAANFSVPVVSAPHSPSQDELTFTCTSINGYPRPNVYWINKTDNSLLDQALQNDTVFLNMRGLYDVVSVLRIARTPSVNIGCCIENVLLQQNLTVGSQTGNDIGERDKITENPVSTGEKNAAT	Not satisfied
ICOSL-Fc N52V/N57T/Q100L (Fc fusion) DTQEKEVRAMVGSDVELSCACPEGSRFDLNDVYVYWQTSESKTVVTYHIPQVSSLETVDSRYRNRALMSPAGMLRGDFSLRLFNVTPQDEQKFHCLVLSLSLGFQEVLSVEVTLHVAANFSVPVVSAPHSPSQDELTFTCTSINGYPRPNVYWINKTDNSLLDQALQNDTVFLNMRGLYDVVSVLRIARTPSVNIGCCIENVLLQQNLTVGSQTGNDIGERDKITENPVSTGEKNAAT	Satisfied
ICOSL-Fc N52G/N57V/Q100G (Fc fusion) DTQEKEVRAMVGSDVELSCACPEGSRFDLNDVYVYWQTSESKTVVTYHIPQGSSLEVVDSRYRNRALMSPAGMLRGDFSLRLFNVTPQDEQKFHCLVLSGSLGFQEVLSVEVTLHVAANFSVPVVSAPHSPSQDELTFTCTSINGYPRPNVYWINKTDNSLLDQALQNDTVFLNMRGLYDVVSVLRIARTPSVNIGCCIENVLLQQNLTVGSQTGNDIGERDKITENPVSTGEKNAAT	Not satisfied
ICOSL-Fc N52S/N57Y/Q100V (Fc fusion) DTQEKEVRAMVGSDVELSCACPEGSRFDLNDVYVYWQTSESKTVVTYHIPQSSSLEYVDSRYRNRALMSPAGMLRGDFSLRLFNVTPQDEQKFHCLVLSVSLGFQEVLSVEVTLHVAANFSVPVVSAPHSPSQDELTFTCTSINGYPRPNVYWINKTDNSLLDQALQNDTVFLNMRGLYDVVSVLRIARTPSVNIGCCIENVLLQQNLTVGSQTGNDIGERDKITENPVSTGEKNAAT	Not satisfied
